Task for the reader: assign each of the following molecules its reported microsomal CLint.
experiment: in vitro; details: human, liver microsomes

Below, each entry is followed by its recorded microsomal CLint result.
MOLECULE: Cc1ccc(S(=O)(=O)N(C)C(=O)N2CCC(N3CCC(Oc4ccc(Cl)c(Cl)c4)CC3)CC2)cc1
microsomal CLint: 10 µL/min/mg
//
MOLECULE: O=C(NCCc1ccccc1)c1cc(-n2ncc(=O)[nH]c2=O)ccc1Cl
microsomal CLint: < 3 µL/min/mg
//
MOLECULE: CCOc1ccc2oc(C(=O)NC(CCSC)c3nc4ncccc4[nH]3)c(C)c2c1 (stereo not drawn)
microsomal CLint: > 150 µL/min/mg

Provide the reported microsomal CLint of each entry below, same order.
1. CCS(=O)(=O)c1ccc(-c2cc(C(F)(F)F)ccc2OCC(N)=O)c(C)c1
2. Cc1cccc(C[C@@H](C(=O)O)N2CCC(CN3CCC(Oc4ccc(Cl)c(Cl)c4)CC3)CC2)c1
3. CN1CCN(CC(=O)N2c3ccccc3C(=O)Nc3cccnc32)CC1 [PIRENZEPINE]
4. Cc1ccc(S(=O)(=O)NC(=O)N2CCC(N3CCC(Oc4ccc(Cl)cc4C)CC3)CC2)cc1
5. CN(C)c1ccc(S(=O)(=O)NC(=O)N2CCC(N3CCC(Oc4ccc(Cl)c(Cl)c4)CC3)CC2)cc1
6. C[C@H](CO)n1ccc2c(NC(=O)Cc3ccc(Cl)c(C(F)(F)F)c3)cccc2c1=O
7. N#Cc1cccc(C[C@@H](C(=O)O)N2CCC(CN3CCC(Oc4ccc(Cl)c(Cl)c4)CC3)CC2)c1
8. c1ccc(Nc2[nH]nnc2-c2ccccc2)cc1

A)
1: < 3 µL/min/mg; 2: < 3 µL/min/mg; 3: < 3 µL/min/mg; 4: 6 µL/min/mg; 5: 10.5 µL/min/mg; 6: < 3 µL/min/mg; 7: < 3 µL/min/mg; 8: 119 µL/min/mg

// data source = ChEMBL document CHEMBL3301361
